- assayedTarget: T1, ITGA2 protein on the surface of human tumor cells (HuCCT1, A431) (human, UniProt P17301 30-1181)
- T1 construct: whole, on cells; Endogenously expressed on the cell lines; the cell line of each entry is named under assay or readout; also called Integrin alpha-2; ITGA2-positive HuCCT1 cells
- T1 sequence (looked up): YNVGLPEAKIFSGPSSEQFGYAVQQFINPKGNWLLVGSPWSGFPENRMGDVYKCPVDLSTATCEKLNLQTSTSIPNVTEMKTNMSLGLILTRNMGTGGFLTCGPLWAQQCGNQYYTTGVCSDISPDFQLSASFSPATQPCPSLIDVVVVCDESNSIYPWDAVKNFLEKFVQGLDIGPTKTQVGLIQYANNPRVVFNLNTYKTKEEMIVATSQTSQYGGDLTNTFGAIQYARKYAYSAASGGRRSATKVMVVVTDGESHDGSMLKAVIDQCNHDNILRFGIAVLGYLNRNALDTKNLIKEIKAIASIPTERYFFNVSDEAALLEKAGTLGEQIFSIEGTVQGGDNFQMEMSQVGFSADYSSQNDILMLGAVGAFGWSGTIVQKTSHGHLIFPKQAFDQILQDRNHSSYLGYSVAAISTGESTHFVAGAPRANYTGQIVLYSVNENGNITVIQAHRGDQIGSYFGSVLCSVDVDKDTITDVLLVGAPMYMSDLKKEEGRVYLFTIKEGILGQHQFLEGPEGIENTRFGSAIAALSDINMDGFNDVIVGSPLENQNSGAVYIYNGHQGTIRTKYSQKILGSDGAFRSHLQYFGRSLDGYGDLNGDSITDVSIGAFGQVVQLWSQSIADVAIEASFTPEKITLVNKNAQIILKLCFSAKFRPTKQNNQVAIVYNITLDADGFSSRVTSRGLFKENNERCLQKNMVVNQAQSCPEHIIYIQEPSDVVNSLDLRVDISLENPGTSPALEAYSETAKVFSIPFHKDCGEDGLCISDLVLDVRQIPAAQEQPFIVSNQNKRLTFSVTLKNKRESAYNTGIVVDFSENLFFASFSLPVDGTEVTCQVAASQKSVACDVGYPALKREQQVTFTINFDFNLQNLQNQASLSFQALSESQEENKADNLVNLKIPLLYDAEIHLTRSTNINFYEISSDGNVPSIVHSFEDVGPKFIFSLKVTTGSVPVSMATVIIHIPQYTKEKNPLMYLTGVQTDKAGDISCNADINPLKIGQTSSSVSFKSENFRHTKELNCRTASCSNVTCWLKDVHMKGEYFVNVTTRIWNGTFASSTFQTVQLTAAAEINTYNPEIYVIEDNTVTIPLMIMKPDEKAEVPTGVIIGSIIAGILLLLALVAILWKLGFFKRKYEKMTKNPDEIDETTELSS
- assaySummary: flow cytometry on HuCCT1 cells, goat anti-human IgG (H+L) secondary antibody
The following binders are listed with their measured pEC50 values.
Scale: pEC50 equals -log10([C]), with [C] in mol/L.

Example results:
{"binder": "Humanized antibody FS002-C9 (antibody, human IgG1, kappa, V domains shown, IgG1 heavy chain, kappa light chain) VH: QVQLLESGPGLVKPSQTVSLTCTVSGVSISRGVYSWSWIRQHPGKGLEWIGFIDYNGRTDYNPSLKSRVTISQDTSKNDFSLKLTSVTAADTAIYYCARGLHAFDIWGQGTMVTVSS VL: NIQMTQSPPSLSASVGDRVAITCRASQDISNSLAWYQQKSGQPPKLLLYDVSKLERGVPSRFSGSGSRTDYTLTISSLQPEDFATYYCQQYSSDPTFGQGSKLEFKR", "pEC50": 7.46}
{"binder": "Humanized antibody FS002-A5 (antibody, human IgG1, kappa, V domains shown, IgG1 heavy chain, kappa light chain) VH: QVQLQDSGPGLVKPSQTLSLTCTVSGGSISSGGYYWSWIRQHPGKGLEWIGYIYYSGSTYYNPSLKSRVTISVDTSKNQFSLKLSSVTAADTAVYYCARVPVPLVGAFDIWGQGTMVTVSS VL: EIVLTQSPATLSLSPGERATLSCRASQSVSSNLGWYQQKPGQAPSLLIYGASNRATGIPARFSGSGSGTDFTLTISSLEPEDFAVYYCQQRDTWPLTFGGGTKVEIKR", "pEC50": 8.90}

Prompt: // lookup pEC50 for Humanized antibody FS002-A72 (antibody, human IgG1, kappa, V domains shown, IgG1 heavy chain, kappa light chain) VH: QVQLVDSGGGLVQPGGSLRLSCVASGFAFSNYEMNWVRQAPGKGLEWVSYISSSSSYTNYADSVKGRFTISRDNAKNSLYLQMNSLRAEDTAVYYCARAQVRDAFDIWGQGTTVTVSS VL: IVMTQSPVTLSVSPGDSATLSCRASQSVDKNLAWYQQKTGQAPRLLIYGAATRATGIPARFSGSGSGTEFTLTISSLRSEDFAVYYCQQYRNWPWTFGLGTKVEIKR
Response: 7.76

Prompt: And what about the binder Humanized antibody FS002-B27 (antibody, human IgG1, kappa, V domains shown, IgG1 heavy chain, kappa light chain) VH: QVQLVQSGAEVKKPGSSVKVSCKASGGTFSSYAISWVRQAPGQGLEWMGRIIPILGIANYAQKFQGRVTITADKSTSTAYMELSSLRSEDTAVYYCARAEGSSWYYFDYWGQGTLVTVSS VL: NIQLTQSPSSVSASVGDRVTITCRASQGFSRWLAWYQQKPGKAPKLLIYGASSLQSGVPSRFSGSGSGTDFTLTISSLQPEDFATYYCQQANSFPLTFGGGTKLEIKR ?
Response: 8.56

Prompt: And what about the binder Humanized antibody FS002-C153 (antibody, human IgG1, lambda, V domains shown, IgG1 heavy chain, lambda light chain) VH: QVQLQQWGAELVKPGASVKLSCTASGFNIKDTYMHWVKQRPEQGLEWIGRIDPANGNTKYDPKFQGKATITADTSSNTAYLQLSSLTSEDTAVYYCARSYYRYDGYFDVWGAGTMVTVSS VL: QSALTQPASVSGSPGQSITISCTGTSSDVGGYNYVSWYQQHPGKAPKLMIYDVSNRPSGVSNRFSGSKSGNTASLTISGLQAEDEADYYCSSFTTITTRVFGGGTKLTVLG ?
Response: 8.44
